Data origin: patent US20220056149A1

Molecular target: T1, hEGFR-Fc (Sino Biological) (human, UniProt P00533 25-645)
T1 construct: Bought; also called human EGFR; humans EGFR-Fc protein; not shown: Fc part of a bought fusion protein
Experiment: antigen binding activity, summary table; assay not named on the sheet

BINDER	binding result
GE11-CD-H (other) antigen binding fragment-CD fusion: MYHWYGYTPQNVIGGGGSGGGGSGGGGSVTGGMASKWDQKGMDIAYEEAALGYKEGGVPIGGCLINNKDGSVLGRGHNMRFQKGSATLHGEISTLENCGRLEGKVYKDTTLYTTLSPCDMCTGAIIMYGIPRCVVGENVNFKSKGEKYLQTRGHEVVVVDDERCKKIMKQFIDERPQDWFEDIGEGSSHHHHHH	no binding
DOM-16-39-CD-H (VHH) sdAb-CD fusion: MDIQMTQSPTSLSASVGDRVTITCRASQWIGNLLDWYQQKPGEAPKLLIYYASFLQSGVPSRFSGGGFGTDFTLTISSLQPEDFATYYCQQANPAPLTFGQGTKVEIKRGGGGSGGGGSGGGGSVTGGMASKWDQKGMDIAYEEAALGYKEGGVPIGGCLINNKDGSVLGRGHNMRFQKGSATLHGEISTLENCGRLEGKVYKDTTLYTTLSPCDMCTGAIIMYGIPRCVVGENVNFKSKGEKYLQTRGHEVVVVDDERCKKIMKQFIDERPQDWFEDIGEGSSHHHHHH	binds
Inherbin1-CD-H (other) antigen binding fragment-CD fusion: MMLYNPTTYQMDVNPEGKGGGGSGGGGSGGGGSVTGGMASKWDQKGMDIAYEEAALGYKEGGVPIGGCLINNKDGSVLGRGHNMRFQKGSATLHGEISTLENCGRLEGKVYKDTTLYTTLSPCDMCTGAIIMYGIPRCVVGENVNFKSKGEKYLQTRGHEVVVVDDERCKKIMKQFIDERPQDWFEDIGEGSSHHHHHH	no binding
